Tested on: SF-268 (CNS cancer)
protocol-summary: MTT cytotoxicity assay, SF-268 cells
Format: cell-based, human
condition-notes: Homo sapiens, SF-268, 72 h, SF268 cells, c 1.00 μM, triplicate values; read-out: cell inhibition
Note to self: values exactly at 6% are true. So inhibition at 1 µM at or above 6% is true, below is false.

Worked examples follow.
compound | assigned-category
CC(=O)OC(C)C(C)=CC=CC1(C)OC(=O)C(C)C1O (stereo not drawn) [compound 1, diaportone A] | false
CC(C)[C@@H](C)C=C[C@@H](C)[C@H]1CC[C@@]2(O)C3=CC(=O)C4=CC(=O)CC[C@]4(C)[C@H]3CC[C@]12C [compound 8] | true
CC(C)[C@@H](C)/C=C/[C@@H](C)[C@H]1CCC(=O)[C@]23CC(=O)C4=CC(=O)CC[C@]4(C)[C@H]2CC[C@]13C [compound 7, dankasterone A] | true
C/C(=C\C=C\[C@]1(C)OC(=O)[C@@H](C)[C@@H]1O)[C@H](C)O [compound 2, colletolides A] | false
COc1cccc2c1C(=O)c1c(O)c3c(c(O)c1C2=O)C[C@@](O)(C(=O)CO)C[C@@H]3O[C@H]1C[C@H](N)[C@H](O)[C@H](C)O1 [Adriamycin, reference compound] | true
CCCC(O)C1=C(C)C(=O)CC1C (stereo not drawn) [compound 4, phomotenone] | false
CC(C)[C@@H](C)/C=C/[C@@H](C)C1CCC2C3=CC(=O)OC4=CC(=O)CC[C@]4(C)C3CC[C@@]21C (stereo partly drawn) [compound 9, fortisterol] | true
CC1(O)CC2OC23C(C)(C)C(Cl)CCC3(C)C1C(=O)O (stereo not drawn) [compound 6, altiloxin B] | false

Now, please, on to the next compound.
Task: State whether the measured inhibition at 1 µM reaches 6%, counting equality as reaching it, for CCCC(O)C1=C(C)C(=O)C(C)C1 (stereo not drawn) [compound 3, diaportone B]
Result: true

These measurements were taken from paper PMC8640094.
